assay: Metabolic stability test; type: in vitro ADME; details: human liver microsomes, 0 to 30 minutes; a hydrochloride was used
assay-metric: CLint scaled (mL/min/kg)
Report as a plain number; the unit mL/min/kg is understood.

Qu. Request the reported CLint scaled associated with Cc1cnn(CCN2CC[C@]34CCN(CC5CC5)[C@H](Cc5cc(I)c(O)cc53)[C@]4(O)CC2)c1 [Example 298]
Ans. 22.5

Qu. Request the reported CLint scaled associated with Cc1cnn(CCN2CC[C@]34CCN(CC5CC5)[C@H](Cc5ccc(C(N)=O)cc53)[C@]4(O)CC2)c1 [Example 244]
Ans. 7.7

Qu. Request the reported CLint scaled associated with Cc1cnn(CCN2CC[C@]34CCN(CC5CC5)[C@H](Cc5cc(Br)c(O)cc53)[C@]4(O)CC2)c1 [Example 263]
Ans. 18

Qu. Request the reported CLint scaled associated with Cc1cc2c(cc1O)[C@@]13CCN(C(=O)Cc4cccc(C(F)(F)F)n4)CC[C@@]1(O)[C@@H](C2)N(CC1CC1)CC3 [Example 322]
Ans. 6.6

Qu. Request the reported CLint scaled associated with Cc1cc(CCN2CC[C@]34CCN(CC5CC5)[C@H](Cc5ccc(O)cc53)[C@]4(O)CC2)ns1 [Example 177]
Ans. 9.5

Qu. Request the reported CLint scaled associated with Oc1ccc2c(c1)[C@@]13CCN(CCn4cccn4)CC[C@@]1(O)[C@@H](C2)N(CC1CC1)CC3 [Example 45]
Ans. 4.5

Qu. Request the reported CLint scaled associated with CC1C[C@@]2(O)[C@H]3Cc4ccc(O)cc4[C@]2(CCN1C(=O)Cc1ccccn1)CCN3CC1CC1 (stereo partly shown) [Example 281]
Ans. 13.7

---

molecular target: human κ opioid receptors (Homo sapiens, UniProt P41145); assay: Opioid receptor function test (Lance Ultra cAMP kit, agonist activity); settings: CHO cells expressing human κ opioid receptors, 10 μM forskolin, 30 minutes
Sequence (P41145 whole entry): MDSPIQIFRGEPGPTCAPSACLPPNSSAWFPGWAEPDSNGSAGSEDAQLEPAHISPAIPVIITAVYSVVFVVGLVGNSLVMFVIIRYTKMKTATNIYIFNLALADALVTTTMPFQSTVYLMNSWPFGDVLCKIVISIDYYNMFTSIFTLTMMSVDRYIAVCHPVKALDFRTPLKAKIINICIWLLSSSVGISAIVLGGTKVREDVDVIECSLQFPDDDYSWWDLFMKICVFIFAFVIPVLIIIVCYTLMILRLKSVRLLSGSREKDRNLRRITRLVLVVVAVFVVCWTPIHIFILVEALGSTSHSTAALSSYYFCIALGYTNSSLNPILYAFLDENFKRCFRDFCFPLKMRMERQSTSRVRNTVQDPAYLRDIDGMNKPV
Please provide measured pEC50 for the entries that follow.
# log scale: pEC50 equals minus log10 of the concentration in mol/L

Qu. Request the reported pEC50 associated with Cc1cc2c(cc1O)[C@@]13CCN(C(=O)CN4CC[C@@H](C)C4)CC[C@@]1(O)[C@@H](C2)N(CC1CC1)CC3
Ans. 9.74

Qu. Request the reported pEC50 associated with Cc1cc(CCN2CC[C@]34CCN(CC5CC5)[C@H](Cc5ccc(O)cc53)[C@]4(O)CC2)no1
Ans. 9.16

Qu. Request the reported pEC50 associated with O=C(Cc1cn2ccccc2n1)N1CC[C@]23CCN(CC4CC4)[C@H](Cc4ccc(O)cc42)[C@]3(O)CC1
Ans. 9.82

Qu. Request the reported pEC50 associated with O=C(CCn1cc(C(F)(F)F)cn1)N1CC[C@]23CCN(CC4CC4)[C@H](Cc4ccc(O)cc42)[C@]3(O)CC1
Ans. 10.03

Qu. Request the reported pEC50 associated with Oc1ccc2c(c1)[C@@]13CCN(CCc4ccc5ccccc5n4)CC[C@@]1(O)[C@@H](C2)N(CC1CC1)CC3
Ans. 10.40

Qu. Request the reported pEC50 associated with Oc1ccc2c(c1)[C@@]13CCN(CCc4cc5ccccc5cn4)CC[C@@]1(O)[C@@H](C2)N(CC1CC1)CC3
Ans. 10.19

Qu. Request the reported pEC50 associated with Oc1ccc2c(c1)[C@]13CCN(CC4CC4)[C@H](C2)[C@]1(O)CCCN(CCc1ccccn1)C3
Ans. 9.85

Qu. Request the reported pEC50 associated with Cc1cc2c(cc1O)[C@@]13CCN(C(=O)Cc4cc(C(F)(F)F)ccn4)CC[C@@]1(O)[C@@H](C2)N(CC1CC1)CC3
Ans. 9.96

Qu. Request the reported pEC50 associated with Oc1ccc2c(c1)[C@@]13CCN(CCc4n[nH]c5ccccc45)CC[C@@]1(O)[C@@H](C2)N(CC1CC1)CC3
Ans. 10.43
